assay: Solubility by filtration assay; format: physicochemical; settings: 10 mM sodium phosphate buffer, pH 7.4
Square brackets hold non-standard residues; d marks the D form. Peptide text beside a SMILES is read from it. NMeI = CC[C@H](C)[C@H](NC)C(=O)O; NMeA = CN[C@@H](C)C(=O)O
Measurement name: solubility at 1 min (µM)
Enter your answer as a number in µM; do not include the unit.

Requested read-out: solubility at 1 min. Entry: CC[C@H](C)[C@H](N)C(=O)N[C@H](C(=O)NCC(=O)N[C@@H](CC(C)C)C(=O)N[C@@H](CCSC)C(=O)N[C@H](C(=O)NCC(=O)NCC(=O)N[C@H](C(=O)N[C@H](C(=O)N(C)[C@H](C(=O)N[C@@H](C)C(=O)O)[C@@H](C)CC)C(C)C)C(C)C)C(C)C)[C@@H](C)CC [[N-Me-I11]Aβ3(31–42), IIGLMVGGW-(N-Me)I-A] (H-IIGLMVGGVV[NMeI]A-OH; N-terminus assumed)
132

Requested read-out: solubility at 1 min. Entry: CC[C@H](C)[C@H](N)C(=O)N[C@H](C(=O)NCC(=O)N[C@@H](CC(C)C)C(=O)N[C@@H](CCSC)C(=O)N[C@H](C(=O)NCC(=O)N(C)[C@@H](C)C(=O)N[C@H](C(=O)N[C@H](C(=O)N[C@H](C(=O)N[C@@H](C)C(=O)O)[C@@H](C)CC)C(C)C)C(C)C)C(C)C)[C@@H](C)CC [[N-Me-A8]Aβ(31–42), IIGLMVG-(N-Me)A-WIA] (H-IIGLMVG[NMeA]VVIA-OH; N-terminus assumed)
41

Requested read-out: solubility at 1 min. Entry: CC[C@H](C)[C@H](NC(=O)[C@H](C)NC)C(=O)NCC(=O)N[C@@H](CC(C)C)C(=O)N[C@@H](CCSC)C(=O)N[C@H](C(=O)NCC(=O)NCC(=O)N[C@H](C(=O)N[C@H](C(=O)N[C@H](C(=O)N[C@@H](C)C(=O)O)[C@@H](C)CC)C(C)C)C(C)C)C(C)C [[N-Me-A1]Aβ(31–42), (N-Me)A-IGLMVGGWIA] (H-[NMeA]IGLMVGGVVIA-OH; N-terminus assumed)
8

Requested read-out: solubility at 1 min. Entry: CC[C@H](C)[C@H](N)C(=O)N[C@H](C(=O)N(C)CC(=O)N[C@@H](CC(C)C)C(=O)N[C@@H](CCSC)C(=O)N[C@H](C(=O)NCC(=O)NCC(=O)N[C@H](C(=O)N[C@H](C(=O)N[C@H](C(=O)N[C@@H](C)C(=O)O)[C@@H](C)CC)C(C)C)C(C)C)C(C)C)[C@@H](C)CC [[N-Me-G3]Aβ(31–42), II-(N-Me)G-LMVGGWIA]
118

* * *

Can you tell me solubility at 1 min for the items I'm about to list?
assay: Solubility by filtration assay; format: physicochemical; settings: 10 mM sodium phosphate buffer, pH 7.4
Square brackets hold non-standard residues; d marks the D form. Peptide text beside a SMILES is read from it. NMeA = CN[C@@H](C)C(=O)O
Enter your answer as a number in µM; do not include the unit.

Requested read-out: solubility at 1 min. Entry: CC[C@H](C)[C@H](N)C(=O)N[C@H](C(=O)N(C)[C@@H](C)C(=O)N[C@@H](CC(C)C)C(=O)N[C@@H](CCSC)C(=O)N[C@H](C(=O)NCC(=O)NCC(=O)N[C@H](C(=O)N[C@H](C(=O)N[C@H](C(=O)N[C@@H](C)C(=O)O)[C@@H](C)CC)C(C)C)C(C)C)C(C)C)[C@@H](C)CC [[N-Me-A3]Aβ(31–42), II-(N-Me)A-LMVGGWIA]
102

Requested read-out: solubility at 1 min. Entry: CC[C@H](C)[C@H](N)C(=O)N[C@H](C(=O)NCC(=O)N[C@@H](CC(C)C)C(=O)N[C@@H](CCSC)C(=O)N(C)[C@@H](C)C(=O)NCC(=O)NCC(=O)N[C@H](C(=O)N[C@H](C(=O)N[C@H](C(=O)N[C@@H](C)C(=O)O)[C@@H](C)CC)C(C)C)C(C)C)[C@@H](C)CC [[N-Me-A6]Aβ(31–42), IIGLM-(N-Me)A-GGWIA] (H-IIGLM[NMeA]GGVVIA-OH; N-terminus assumed)
87

* * *

assay: Solubility by filtration assay; format: physicochemical; settings: 10 mM sodium phosphate buffer, pH 7.4
Square brackets hold non-standard residues; d marks the D form. Peptide text beside a SMILES is read from it. NMeV = CN[C@H](C(=O)O)C(C)C; NMeA = CN[C@@H](C)C(=O)O
Values of solubility at 1 min greater than or equal to 90 µM map to 1 (yes); values below map to 0 (no).

API: above_or_equal(metric=solubility at 1 min, cutoff=90 µM) for item CC[C@H](C)[C@H](N)C(=O)N[C@H](C(=O)NCC(=O)N[C@@H](CC(C)C)C(=O)N[C@@H](CCSC)C(=O)N[C@H](C(=O)NCC(=O)NCC(=O)N[C@H](C(=O)N[C@H](C(=O)N(C)[C@@H](C)C(=O)N[C@@H](C)C(=O)O)C(C)C)C(C)C)C(C)C)[C@@H](C)CC [[N-Me-A11]Aβ(31–42), IIGLMVGGW-(N-Me)A-A] (H-IIGLMVGGVV[NMeA]A-OH; N-terminus assumed)
0 (no)

API: above_or_equal(metric=solubility at 1 min, cutoff=90 µM) for item CC[C@H](C)[C@H](N)C(=O)N[C@H](C(=O)NCC(=O)N(C)[C@@H](C)C(=O)N[C@@H](CCSC)C(=O)N[C@H](C(=O)NCC(=O)NCC(=O)N[C@H](C(=O)N[C@H](C(=O)N[C@H](C(=O)N[C@@H](C)C(=O)O)[C@@H](C)CC)C(C)C)C(C)C)C(C)C)[C@@H](C)CC [[N-Me-A4]Aβ(31–42), IIG-(N-Me)A-MVGGWIA] (H-IIG[NMeA]MVGGVVIA-OH; N-terminus assumed)
1 (yes)

API: above_or_equal(metric=solubility at 1 min, cutoff=90 µM) for item CC[C@H](C)[C@H](N)C(=O)N[C@H](C(=O)NCC(=O)N[C@@H](CC(C)C)C(=O)N[C@@H](CCSC)C(=O)N[C@H](C(=O)NCC(=O)NCC(=O)N(C)[C@@H](C)C(=O)N[C@H](C(=O)N[C@H](C(=O)N[C@@H](C)C(=O)O)[C@@H](C)CC)C(C)C)C(C)C)[C@@H](C)CC [[N-Me-A9]Aβ(31–42), IIGLMVGG-(N-Me)A-VIA] (H-IIGLMVGG[NMeA]VIA-OH; N-terminus assumed)
1 (yes)

API: above_or_equal(metric=solubility at 1 min, cutoff=90 µM) for item CC[C@H](C)[C@H](N)C(=O)N[C@H](C(=O)NCC(=O)N[C@@H](CC(C)C)C(=O)N[C@@H](CCSC)C(=O)N[C@H](C(=O)NCC(=O)NCC(=O)N(C)[C@H](C(=O)N[C@H](C(=O)N[C@H](C(=O)N[C@@H](C)C(=O)O)[C@@H](C)CC)C(C)C)C(C)C)C(C)C)[C@@H](C)CC [[N-Me-V9]Aβ(31–42), IIGLMVGG-(N-Me)V-VIA] (H-IIGLMVGG[NMeV]VIA-OH; N-terminus assumed)
1 (yes)

API: above_or_equal(metric=solubility at 1 min, cutoff=90 µM) for item CC[C@H](C)[C@H](N)C(=O)N[C@H](C(=O)NCC(=O)N[C@@H](CC(C)C)C(=O)N[C@@H](CCSC)C(=O)N[C@H](C(=O)NCC(=O)NCC(=O)N[C@H](C(=O)N[C@H](C(=O)N[C@H](C(=O)N(C)[C@@H](C)C(=O)O)[C@@H](C)CC)C(C)C)C(C)C)C(C)C)[C@@H](C)CC [[N-Me-A12]Aβ(31–42)] (H-IIGLMVGGVVI[NMeA]-OH; N-terminus assumed)
0 (no)

* * *

test: Solubility by filtration assay; type: physicochemical; details: 10 mM sodium phosphate buffer, pH 7.4
Square brackets hold non-standard residues; d marks the D form. Peptide text beside a SMILES is read from it. NMeI = CC[C@H](C)[C@H](NC)C(=O)O; NMeA = CN[C@@H](C)C(=O)O; Sar = CNCC(=O)O
Measurement name: solubility at 1 min (µM)
Enter your answer as a number in µM; do not include the unit.

Requested read-out: solubility at 1 min. Entry: CC[C@H](C)[C@H](NC)C(=O)N[C@H](C(=O)NCC(=O)N[C@@H](CC(C)C)C(=O)N[C@@H](CCSC)C(=O)N[C@H](C(=O)NCC(=O)NCC(=O)N[C@H](C(=O)N[C@H](C(=O)N[C@H](C(=O)N[C@@H](C)C(=O)O)[C@@H](C)CC)C(C)C)C(C)C)C(C)C)[C@@H](C)CC [[N-Me-I1]Aβ3(31–42), (N-Me)I-IGLMVGGWIA] (H-[NMeI]IGLMVGGVVIA-OH; N-terminus assumed)
7

Requested read-out: solubility at 1 min. Entry: CC[C@H](C)[C@H](N)C(=O)N(C)[C@@H](C)C(=O)NCC(=O)N[C@@H](CC(C)C)C(=O)N[C@@H](CCSC)C(=O)N[C@H](C(=O)NCC(=O)NCC(=O)N[C@H](C(=O)N[C@H](C(=O)N[C@H](C(=O)N[C@@H](C)C(=O)O)[C@@H](C)CC)C(C)C)C(C)C)C(C)C [[N-Me-A2]Aβ(31–42), I-(N-Me)A-GLMVGGWIA] (H-I[NMeA]GLMVGGVVIA-OH; N-terminus assumed)
101

Requested read-out: solubility at 1 min. Entry: CC[C@H](C)[C@H](N)C(=O)N[C@H](C(=O)NCC(=O)N[C@@H](CC(C)C)C(=O)N[C@@H](CCSC)C(=O)N[C@H](C(=O)N(C)[C@@H](C)C(=O)NCC(=O)N[C@H](C(=O)N[C@H](C(=O)N[C@H](C(=O)N[C@@H](C)C(=O)O)[C@@H](C)CC)C(C)C)C(C)C)C(C)C)[C@@H](C)CC [[N-Me-A7]Aβ(31–42), IIGLMV-(N-Me)A-GWIA] (H-IIGLMV[NMeA]GVVIA-OH; N-terminus assumed)
88

Requested read-out: solubility at 1 min. Entry: CC[C@H](C)[C@H](N)C(=O)N[C@H](C(=O)NCC(=O)N[C@@H](CC(C)C)C(=O)N[C@@H](CCSC)C(=O)N[C@H](C(=O)NCC(=O)N(C)CC(=O)N[C@H](C(=O)N[C@H](C(=O)N[C@H](C(=O)N[C@@H](C)C(=O)O)[C@@H](C)CC)C(C)C)C(C)C)C(C)C)[C@@H](C)CC [[N-Me-G8]Aβ(31–42), IIGLMVG-(N-Me)G-WIA] (H-IIGLMVG[Sar]VVIA-OH; N-terminus assumed)
18

Requested read-out: solubility at 1 min. Entry: CC[C@H](C)[C@H](N)C(=O)N[C@H](C(=O)NCC(=O)N[C@@H](CC(C)C)C(=O)N(C)[C@@H](C)C(=O)N[C@H](C(=O)NCC(=O)NCC(=O)N[C@H](C(=O)N[C@H](C(=O)N[C@H](C(=O)N[C@@H](C)C(=O)O)[C@@H](C)CC)C(C)C)C(C)C)C(C)C)[C@@H](C)CC [[N-Me-A5]Aβ(31–42), IIGL-(N-Me)A-VGGWIA] (H-IIGL[NMeA]VGGVVIA-OH; N-terminus assumed)
105

Data provenance is paper PMC3517043.
